Attribute: inhibition at 0.25 µM
Biological target: EB3 interactions with IP3R3-GFP (Homo sapiens, UniProt Q9UPY8)
Sequence (Q9UPY8 whole entry): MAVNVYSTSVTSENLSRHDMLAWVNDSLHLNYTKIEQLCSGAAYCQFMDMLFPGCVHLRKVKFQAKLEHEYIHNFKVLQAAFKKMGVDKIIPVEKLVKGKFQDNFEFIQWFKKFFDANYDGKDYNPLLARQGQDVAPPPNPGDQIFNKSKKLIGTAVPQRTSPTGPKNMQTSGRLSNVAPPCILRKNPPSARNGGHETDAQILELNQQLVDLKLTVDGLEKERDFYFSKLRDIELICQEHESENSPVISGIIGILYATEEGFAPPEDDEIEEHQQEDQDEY
Assay: Competitive binding: inhibition of EB3 interaction with IP3R3-GFP in vitro
Format: biochemical
Conditions: 250 nM
Starred links: 1 amine or outer side, 2 acyl side, 3 side chain; linkers in the order of their positions; H or OH if unused. Non-standard residues stand in square brackets, D forms with d. Residues, ends and D or L forms follow the SMILES beside them. ξ: configuration not given here. Leu(4,5-dehydro) = C=C(C)C[C@H](N)C(=O)O; Oic = O=C(O)[C@@H]1C[C@@H]2CCCC[C@@H]2N1; GABOB(3R) = O=C(C[C@@H](O)CN[*:1])[*:2]; dVal(3-OH) = CC(C)(O)[C@@H](N)C(=O)O; tBuAla = CC(C)(C)C[C@H](N)C(=O)O; ξVal(3-OH) = CC(C)(O)C(N)C(=O)O; 4Amb = NCc1ccc(C(=O)O)cc1
Form entry: value (%) — number only.

Some solved cases for reference:
- molecule: "CC(C)(C)C[C@@H]1NC(=O)C[C@@H](O)CNC(=O)[C@@H]2C[C@@H]3CCCC[C@@H]3N2C(=O)[C@H](CC(C)(C)C)NC(=O)c2ccc(cc2)CNC(=O)C(C(C)(C)O)NC(=O)[C@@H](Cc2ccccc2)NC1=O (stereo partly drawn) [compound 109] (cyclo([4Amb][tBuAla][Oic][GABOB(3R)][tBuAla][dF][ξVal(3-OH)]))"
  unit.name: "%"
  inhibition at 0.25 µM: 58
- molecule: "CC[C@H](C)[C@H](NC(=O)[C@@H](NC(=O)[C@@H]1CCCN1C(=O)[C@@H](NC(=O)[C@H](CCC(=O)O)NC(=O)[C@@H](NC(=O)[C@H](N)Cc1ccccc1)[C@@H](C)O)[C@@H](C)CC)[C@@H](C)O)C(=O)O [compound 004] (H-[dF]TEIPTI-OH)"
  unit.name: "%"
  inhibition at 0.25 µM: 39
- molecule: "C=C(C)C[C@H](NC(=O)c1ccc(CNC(=O)CC(O)CN)cc1)C(=O)N1[C@H](C(=O)NCC(O)CC(=O)N[C@@H](CC(C)(C)C)C(=O)O)C[C@@H]2CCCC[C@@H]21 (stereo partly shown)"
  unit.name: "%"
  inhibition at 0.25 µM: 40

--- query ---
Query for EB3 interactions with IP3R3-GFP (Homo sapiens, UniProt Q9UPY8): what inhibition at 0.25 µM does the record show for C=C(C)C[C@H](NC(=O)[C@@H](NC(=O)[C@@H]1CCCN1C(=O)[C@H](CC(C)(C)C)NC(=O)[C@H](CCC(=O)O)NC(=O)[C@H](NC(=O)[C@H](N)Cc1ccccc1)C(C)(C)O)[C@@H](C)O)C(N)=O [compound 044] (H-[dF][dVal(3-OH)]E[tBuAla]PT[Leu(4,5-dehydro)]-NH2) ?
51

====

Test: Pharmacokinetic studies in rats
Settings: male, Crl:CD (SD), rat, in vivo, iv, 5 mg/kg
Starred links: 1 amine or outer side, 2 acyl side, 3 side chain; linkers in the order of their positions; H or OH if unused. Non-standard residues stand in square brackets, D forms with d. Residues, ends and D or L forms follow the SMILES beside them. ξ: configuration not given here. Oic = O=C(O)[C@@H]1C[C@@H]2CCCC[C@@H]2N1; GABOB(3R) = O=C(C[C@@H](O)CN[*:1])[*:2]; tBuAla = CC(C)(C)C[C@H](N)C(=O)O; ξVal(3-OH) = CC(C)(O)C(N)C(=O)O; 4Amb = NCc1ccc(C(=O)O)cc1
reported.metric: clearance (mL/min/kg)
Lab book: enter the figure in mL/min/kg, no units written.

Which measured clearance value corresponds to CC(C)(C)C[C@@H]1NC(=O)C[C@@H](O)CNC(=O)[C@@H]2C[C@@H]3CCCC[C@@H]3N2C(=O)[C@H](CC(C)(C)C)NC(=O)c2ccc(cc2)CNC(=O)C(C(C)(C)O)NC(=O)[C@@H](Cc2ccccc2)NC1=O (stereo partly drawn) [compound 109] (cyclo([4Amb][tBuAla][Oic][GABOB(3R)][tBuAla][dF][ξVal(3-OH)])) ?
6.72
